test system: SNB-75 CNS; assay: NCI tumour cell line growth inhibition, 48 h
// reported TGI per item
Number in µM, nothing else.

[[record]]
molecule = "COc1ccc(OC)c(-c2c(C#N)c(N)nc(N3CCOCC3)c2C#N)c1"
experimental_readout = "TGI"
quantitative_readout = 57.4

[[record]]
molecule = "Cc1c2c(nn1C)CSCc1cc(n(C)n1)CSc1cc(c3ccccc3c1)OCCCc1c(C(=O)O)n(C)c3c-2c(Cl)ccc13"
experimental_readout = "TGI"
quantitative_readout = 18

[[record]]
molecule = "COC(=O)[C@H]1CO[C@H]2C/C(C)=C/CC/C(C)=C/CC[C@@]3(C)O[C@@H]3C[C@H]21"
experimental_readout = "TGI"
quantitative_readout = 39.2


Qu. State measured TGI of the molecule COc1c(Cl)cc(NC(=S)C#N)cc1Cl with SNB-75 CNS.
Ans. 67.4

Qu. State measured TGI of the molecule COc1ccc(/C=C2\S/C(=N/Nc3nc(-c4ccccc4)cs3)NC2=O)cc1OC with SNB-75 CNS.
Ans. 64.4

Qu. State measured TGI of the molecule COc1c2c(nc3ccccc13)-c1cc3c(c(=O)n1C2)COC(=O)C3(O)CC(=O)N1CCOCC1 (stereo not drawn) with SNB-75 CNS.
Ans. 11.6

Qu. State measured TGI of the molecule CCOc1ccccc1N=Nc1c(C)[nH]n(-c2nc(-c3ccccc3)cs2)c1=O with SNB-75 CNS.
Ans. 48.3

Qu. State measured TGI of the molecule O=C1/C(=N\S(=O)(=O)c2ccccc2)C([n+]2ccc(Cc3ccccc3)cc2)=C([O-])c2ccccc21 with SNB-75 CNS.
Ans. 2.64

Qu. State measured TGI of the molecule Cc1cc(N2CCCC2)nc(N(CCNc2ccnc3cc(Cl)ccc23)Cc2ccco2)n1 with SNB-75 CNS.
Ans. 60.7

Qu. State measured TGI of the molecule CC(C)c1cccc2sc(NC(=O)C(=O)C(C#N)c3cccc4ccccc34)nc12 (stereo not drawn) with SNB-75 CNS.
Ans. 95.4

----------
test system: SF-295 CNS; assay: NCI tumour cell line growth inhibition, 48 h; in the data active = GI50 below about 0.43 µM; inactive = the rest
Write down the outcome that applies. Available outcomes: active, inactive

Solved cases below.
[[record]]
molecule = "NC(=O)c1c(NC(=O)c2ccc3c(c2)OCO3)sc2c1CCC(=O)C2"
experimental_target = "SF-295 CNS"
assigned_category = "inactive"

[[record]]
molecule = "COc1cc(C(=O)NC2CCN(C)CC2)c(F)cc1Nc1ncc2c(n1)N(C1CCCC1)CC(F)(F)C(=O)N2C"
experimental_target = "SF-295 CNS"
assigned_category = "active"

[[record]]
molecule = "O=C1c2ccccc2-c2c1c1ccccc1c(=O)n2CCN1CCOCC1"
experimental_target = "SF-295 CNS"
assigned_category = "inactive"


Qu. Returns: the outcome recorded for CCOc1ccccc1N=Nc1c(C)[nH]n(-c2nc(-c3ccccc3)cs2)c1=O in this assay.
Ans. inactive

Qu. Returns: the outcome recorded for COc1ccc(/C=C\c2cc(OC)c(OC)c(OC)c2)cc1OC in this assay.
Ans. active

Qu. Returns: the outcome recorded for Cc1ccc(S(=O)(=O)Nc2cccc3[nH]c(C(F)(F)F)nc23)cc1 in this assay.
Ans. active

----------
tested on: COLO 205 colon; test: NCI tumour cell line growth inhibition, 48 h
EXPERIMENTAL_READOUT: TGI (µM)
Number in µM, nothing else.

Use these answered entries as a reference point.
[[record]]
line_notation = "C/C=C(\\C)C(=O)O[C@H]1C=CC(=O)O[C@@H]1CC[C@H](O)[C@H](C)O"
unit_abbreviation = "µM"
quantitative_readout = 72.6

[[record]]
line_notation = "CC[C@H](CO)Nc1nc(NCc2ccccc2)n2ncc(C(C)C)c2n1"
unit_abbreviation = "µM"
quantitative_readout = 3.15

[[record]]
line_notation = "NC(=O)c1c(NC(=O)c2ccc3c(c2)OCO3)sc2c1CCC(=O)C2"
unit_abbreviation = "µM"
quantitative_readout = 7.42


Qu. Provide one value: measured TGI of CC1(C)[C@H]2CC[C@]1(C)[C@H](OC(=O)NNC(=O)O[C@@H]1C[C@@H]3CC[C@@]1(C)C3(C)C)C2
Ans. 25.6

Qu. Provide one value: measured TGI of Cc1cc(N2CCCC2)nc(N(CCNc2ccnc3cc(Cl)ccc23)Cc2ccco2)n1
Ans. 4.38
